growth inhibition for assorted molecules
# experiment: NCI Yeast Anticancer Drug Screen. Data for the rad50 strain (AID 155);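 note: 0% = growth of vehicle-only cultures of the same strain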
# study-conditions: S. cerevisiae rad50 strain growth inhibition; at 50.0 µM; hits give high values
The panel holds about 79,000 compounds, 15% with a hit somewhere; the sample as a whole holds those more often.
The reply should be a number in %, with the unit left off.

Use these answered entries as a reference point.
(Q) Could you tell me which growth inhibition is on file for `OC1(c2cccc(C(F)(F)F)c2)CCNCC1` ?
(A) -21.8

(Q) # get_value(readout='growth inhibition', item= `N#C/C(=C\n1c(=S)[nH]c2ccccc21)c1nc2ccccc2s1` )
(A) -2.85

(Q) // growth inhibition lookup, key: `CC/C(CCC(=O)OC)=N/Nc1ccc([N+](=O)[O-])cc1[N+](=O)[O-]`
(A) 4.05

***
(Q) Can you share its growth inhibition? I mean this molecule: `CN(C)CCCN(c1nc2cc(Cl)ccc2o1)c1nc2cc(Cl)ccc2o1`
(A) 33.7

(Q) Entry `O=C(Nc1ccccc1F)C(c1ccccc1)c1ccccc1` has what growth inhibition?
(A) 14.8

(Q) Given the molecule Cc1cccc2c1-c1c(C)cccc1C(Cl)S(=O)(=O)C2 (stereo unspecified) , what is its reported growth inhibition?
(A) 1.25

====

# experiment: NCI Yeast Anticancer Drug Screen. Data for the mlh1 rad18 strain (AID 175)
# study-conditions: S. cerevisiae mlh1 rad18 strain growth inhibition; at 50.0 µM
Compounds without any hit were thinned out: in the full panel of roughly 79,000, 15% have a hit. Active and inactive are the calls of the source. Cut-off read from the data, not from the text of the source: active = growth inhibition above about 70%; inactive = the rest.
Your response should consist of one outcome taken from T for active, F for inactive

(Q) Please state the recorded outcome for this compound: `O=C(Nc1nc2ncn(CCNCCn3cnc4nc(NC(=O)c5ccccc5)[nH]c(=O)c43)c2c(=O)[nH]1)c1ccccc1`
(A) F

(Q) Look up the recorded call for `CC(=O)CC1=CC(C(C)(C)C)=CC(=O)C1=O` in this test.
(A) F

(Q) Recorded test outcome, item CCOC(C)C(=O)C=O (stereo unspecified)
(A) F

(Q) Given `c1ccc2cc(N=NNc3ccc4ccccc4c3)ccc2c1` , state the outcome it received in this test.
(A) T

(Q) Could you kindly confirm the outcome this assay logged for CC(C)(O)CCC(O)C(C)(O)C1CCC2(O)C3=CC(=O)C4(O)CC(O)C(O)CC4(C)C3CCC12C (stereo unspecified) (tested in a mixture with another compound) ?
(A) F

(Q) Tell me the recorded outcome of this test for CC(=O)OC1C(C)OC(n2cnc3c(=O)[nH]cnc32)C(OC(C)=O)C1OC(C)=O (stereo unspecified) .
(A) F

(Q) Outcome logged for `CC(=O)/C=C(\c1ccccc1)c1c(O)c2ccccc2oc1=O` in this assay:
(A) F

(Q) Given `CC(=O)Nc1c(Cl)cc(N)cc1Cl` , state the outcome it received in this test.
(A) F

(Q) # outcome recorded in this test, key = COC(=O)/C(C)=C/C=C/C(OC)C(OC(N)=O)/C(C)=C/C(C)C(O)C(CC(C)CC1=C(N)C(=O)C=C(N)C1=O)OC (stereo unspecified)
(A) F

(Q) Identify the outcome logged in this assay for the compound shown: `Cc1cc(=O)c(CO)n[nH]1`
(A) F

(Q) Query: recorded result category for COc1c(OC)c(C2(O)C(=O)N(C)c3ccccc32)c2c(c1C1(O)C(=O)N(C)c3ccccc31)OCO2 (stereo unspecified) in this test
(A) F

(Q) Short answer needed: outcome of this test for O=C(O)CNC(=O)C(Cc1ccccc1)NC(=O)CNC(=O)C(CSC(c1ccccc1)c1ccccc1)NC(=O)C(CSC(c1ccccc1)(c1ccccc1)c1ccccc1)NC(=O)OCc1ccccc1 (stereo unspecified) ?
(A) F

(Q) Could you check what this test reported for CCOC(=O)C(CC)(C(=O)OCC)C(C)CC (stereo unspecified) ?
(A) F
